target system: human glucagon receptor (human) (UniProt P47871)
experiment summary: cell-based or functional assay
*1 amine or outer side, *2 acyl side, *3 side chain or, on linkers, in order; H or OH if unused. Where no end group is shown, it is not given here. Side-chain parts run from the residue outwards. [ ]: non-standard residue; d: D form. The star is where a group is joined. Decanoyl(10-(4-HOOC-PhO)) = O=C(O)c1ccc(OCCCCCCCCCC(=O)*)cc1; αMePhe(2-F) = C[C@](N)(Cc1ccccc1F)C(=O)O; γGlu = O=C(O)[C@H](CCC(=O)[*:2])N[*:1]; αMeY = C[C@](N)(Cc1ccc(O)cc1)C(=O)O; αMeL = CC(C)C[C@](C)(N)C(=O)O; Orn = NCCC[C@H](N)C(=O)O; AEEA = NCCOCCOCC(=O)O; Aib = CC(C)(N)C(=O)O
Exercise: state measured cAMP EC50 for each of the binders provided.

Req: # lookup: cAMP EC50 of YXEGTXTSDXXIXLDXQAQXKFIXXLIKGGPSSGAPPPS (Y-Aib-EGT-αMeF(2F)-TSD-4Pal-Aib-I-αMeL-LD-Orn-QAQ-Aib-K((2-[2-(2-Amino-ethoxy)-ethoxy]-acetyl)2-(γ-Glu)-CO-(CH2)12-CO2H)FI-(D-Glu)-αMeY-LIK((2-[2-(2-Amino-ethoxy)-ethoxy]-acetyl)2-(γ-Glu)-CO-(CH2)12-CO2H)GGPSSGAPPPS-NH2) [Example 488]
Resp: > 10.1 µM

Req: # lookup: cAMP EC50 of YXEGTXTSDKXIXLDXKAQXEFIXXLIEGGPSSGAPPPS (Y-Aib-EGT-αMeF(2F)-TSDK((2-[2-(2-Amino-ethoxy)-ethoxy]-acetyl)2-(γ-Glu)-CO-(CH2)10-CH3)-Aib-I-αMeL-LD-Orn-K((2-[2-(2-Amino-ethoxy)-ethoxy]-acetyl)2-(γ-Glu)-CO-(CH2)10-CH3)AQ-Aib-EFI-(D-Glu)-αMeY-LIEGGPSSGAPPPS-NH2) [Example 292]
Resp: > 9.95 µM

Req: # lookup: cAMP EC50 of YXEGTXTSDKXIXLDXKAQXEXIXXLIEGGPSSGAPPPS (Y-Aib-EGT-αMeF(2F)-TSDK((2-[2-(2-Amino-ethoxy)-ethoxy]-acetyl)3-(γ-Glu)-CO-(CH2)10-CH3)-Aib-I-αMeL-LD-Orn-K((2-[2-(2-Amino-ethoxy)-ethoxy]-acetyl)3-(γ-Glu)-CO-(CH2)10-CH3)AQ-Aib-E-αMeF-I-(D-Glu)-αMeY-LIEGGPSSGAPPPS-NH2) [Example 436]
Resp: > 9.95 µM

Req: # lookup: cAMP EC50 of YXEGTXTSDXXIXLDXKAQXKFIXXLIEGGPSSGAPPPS (Y-Aib-EGT-αMeF(2F)-TSD-4Pal-Aib-I-αMeL-LD-Orn-K((2-[2-(2-Amino-ethoxy)-ethoxy]-acetyl)2-(γ-Glu)-CO-(CH2)12-CO2H)AQ-Aib-K((2-[2-(2-Amino-ethoxy)-ethoxy]-acetyl)2-(γ-Glu)-CO-(CH2)12-CO2H)FI-(D-Glu)-αMeY-LIEGGPSSGAPPPS-NH2) [Example 357]
Resp: > 10.1 µM

Req: # lookup: cAMP EC50 of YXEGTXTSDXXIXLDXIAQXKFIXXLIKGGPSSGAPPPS (Y-Aib-EGT-αMeF(2F)-TSD-4Pal-Aib-I-αMeL-LD-Orn-IAQ-Aib-K((2-[2-(2-Amino-ethoxy)-ethoxy]-acetyl)2-(γ-Glu)-(10-(4-carboxyphenoxy)decanoyl))FI-(D-Glu)-αMeY-LIK((2-[2-(2-Amino-ethoxy)-ethoxy]-acetyl)2-(γ-Glu)-(10-(4-carboxyphenoxy)decanoyl))GGPSSGAPPPS-NH2) [Example 247]
Resp: > 9.95 µM

Req: # lookup: cAMP EC50 of Y[Aib]EGT[αMePhe(2-F)]TSDV[Aib]I[αMeL]LD[Orn]IAQ[Aib]K([AEEA-AEEA-γGlu-Decanoyl(10-(4-HOOC-PhO))])FI[dE][αMeY]LIEGGPSSGAPPPSK([AEEA-AEEA-γGlu-Decanoyl(10-(4-HOOC-PhO))])-NH2 [Example 383]
Resp: > 9.95 µM

Req: # lookup: cAMP EC50 of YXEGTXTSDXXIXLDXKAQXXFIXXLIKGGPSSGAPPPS (Y-Aib-EGT-αMeF(2F)-TSD-4Pal-Aib-I-αMeL-LD-Orn-K((2-[2-(2-Amino-ethoxy)-ethoxy]-acetyl)2-(γ-Glu)-CO-(CH2)10-CH3)AQ-Aib-Orn-FI-(D-Glu)-αMeY-LIK((2-[2-(2-Amino-ethoxy)-ethoxy]-acetyl)2-(γ-Glu)-CO-(CH2)10-CH3)GGPSSGAPPPS-NH2) [Example 414]
Resp: > 9.95 µM
